experiment: amyloid nucleation score (Sup35N fusion, yeast selection) (log enrichment); library NNK3; higher = more nucleation; inactive = no reads after selection;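 also: zero at mode of non-aggregating sequences after 7 days selection at 30°C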

Substance | amyloid nucleation score
ALSVFRGLCVLENFSKISGC | inactive
VFVFDVLFGLLNMANFREVD | -0.713
NNCYRMGFLCPTNRQTMEG | inactive
ILMQNSETWSLYPNTA | inactive
LRYSVEAFTRDDLTESSQVV | inactive
CCMVNRGTRQVSRWIVPNWR | inactive
CLVTGWISSILNWFLYWNWE | inactive
FMVWYREMDLVLVAQREEYK | inactive
YRVRLCNGSCAQVWCLIRPP | inactive
YYNAGAGKRRYNRSVRGSLK | inactive
ITISIYRIGRRFFDEYFNSF | inactive
YLEVLVGSNQCFNMQG | inactive
PWCLNWVITDDCRFYCGLRV | inactive
NPRVYNMIQPAYVNWSMDVT | inactive
YVWLGDLMSVRCYYWVTW | inactive
LSKPFPSMHFSRRWNRNGLW | inactive
MEVKNSRLDSVAKYQSISFL | inactive
ISDTYSWCRYLVIGNYAQLG | 0.463
RSVNGVTLGTARYHAVERVL | inactive
CWEFYVVLYRLLGICKIRVL | inactive
YVVELLVDSGYVPLCTTGQG | inactive
FSSIMSFVVYSRKLLEVTSP | inactive
RTWDYVLLGLLLLDYYRILA | inactive
LHRCSLSKNDSAQSMMLTGC | inactive
TMLWYLDDSSSNIREKSHGM | inactive
FTCPASST | inactive
TRMEICCKGYKGNVPKFAVY | inactive
WSMSDFAALIGWIDALGLEL | inactive
FHTFSLTSINMVLLSFVVRF | inactive
NFRSSI | inactive
DHKFGNMLAFESRLVLYQIK | inactive
FLYYLLMLVRVRCFEQVVIV | inactive
SIPLGFGMLSDDKSI | inactive
VTWNHSSCSERKRVRMSGWS | 0.801
YIFVMLEHVG | inactive
